Target: CAMK1G (1-320) (Homo sapiens)
Construct: made in house; host or cells: E. coli BL21 (DE3) pLysS
Sequence (Q96NX5 1-320): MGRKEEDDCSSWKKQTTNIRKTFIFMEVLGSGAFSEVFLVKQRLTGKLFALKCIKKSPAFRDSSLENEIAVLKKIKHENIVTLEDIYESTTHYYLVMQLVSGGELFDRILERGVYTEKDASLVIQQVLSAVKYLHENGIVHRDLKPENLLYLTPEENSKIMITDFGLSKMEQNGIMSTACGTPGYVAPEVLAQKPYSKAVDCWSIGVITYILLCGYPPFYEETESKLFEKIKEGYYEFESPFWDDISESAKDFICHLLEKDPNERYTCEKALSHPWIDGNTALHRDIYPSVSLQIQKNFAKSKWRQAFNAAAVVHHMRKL
Test: STD-NMR fragment screening, CAMK1G
Format: binding
Settings: 1 = hit, 0 = no hit
Measurement kind: CAMK1G (STD-NMR hit flag)
Format: numeric value only, no unit, no commentary.

*Q* Return CAMK1G (STD-NMR hit flag) (reported value) for this molecule: CCn1ncc(Br)c1CNC [Fragment B02291155]
*A* 0

*Q* Output measured CAMK1G (STD-NMR hit flag) for this item: O=C(O)CCc1nc(Br)n[nH]1 [Fragment B02290119]
*A* 0

*Q* Identify the reported CAMK1G (STD-NMR hit flag) for the following entry. Cn1nc(C(F)(F)F)c(CO)c1Cl [Fragment B02291214]
*A* 0

*Q* Read the entry Nc1c(Cl)ccc(O)c1Cl [Fragment B02290471] and write its reported CAMK1G (STD-NMR hit flag).
*A* 0

*Q* Please supply the value of reported CAMK1G (STD-NMR hit flag) for the item O=C(O)c1cc(Cl)c[nH]1 [Fragment B02291221]
*A* 0

*Q* Please indicate CAMK1G (STD-NMR hit flag) recorded for COCn1nc(Br)[nH]c1=O [Fragment B02290404]
*A* 0

*Q* Give me measured CAMK1G (STD-NMR hit flag), please, for this molecule: Cn1c2nc(Cl)nc-2c(O)n(C)c1=O [Fragment B02291216]
*A* 1
